STUDY_SYSTEM: T1, QP098 (cyno SIRPα (I7G9Z7) ECD(E31-R369)-flag-his) (cynomolgus)
T1 construct: the construct carries flag and his tags; also called cynoSIRPα (ECD); cynomolgus SIRPα
T1 chain: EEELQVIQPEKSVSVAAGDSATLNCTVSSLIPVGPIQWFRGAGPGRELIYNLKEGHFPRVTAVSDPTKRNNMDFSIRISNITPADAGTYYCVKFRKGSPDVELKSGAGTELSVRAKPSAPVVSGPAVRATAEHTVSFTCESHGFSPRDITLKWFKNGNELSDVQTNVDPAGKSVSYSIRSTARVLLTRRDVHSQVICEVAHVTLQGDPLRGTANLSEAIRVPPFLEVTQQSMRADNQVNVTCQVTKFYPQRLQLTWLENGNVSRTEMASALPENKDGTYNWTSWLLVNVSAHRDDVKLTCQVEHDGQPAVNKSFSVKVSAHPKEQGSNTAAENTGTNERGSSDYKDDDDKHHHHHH
ASSAY_NAME: binding ELISA, antigen coated
# strict inequality: EC50 < 1 ng/mL yields class 1, everything else yields class 0

Ask: Is EC50 strictly under 1 ng/mL for the entry QP2561770 (antibody, human IgG4, V domains shown, Human IgG4 heavy constant region and kappa CL) VH: QVQLVQSGAEVKKPGASVKVSCKASGYTFTNYWINWVRQAPGQGLEWIAMIDPSDSETHYNQIFKDRATLTTDTSTSTAYMELRSLRSDDTAVYYCAMDYGSLYAMDYWGRGTLVTVSS VL: DIVLTQSPDSLAVSLGERATINCRASQSVRSSGYNWIFWYQQKPGQPPKLLIYLASNRDSGVPDRFSGSGSGTDFTLTISSLQAEDVAVYYCQESRELPTFGQGTKLEIK ?
Result: class 0

Ask: Is EC50 strictly under 1 ng/mL for the entry QP2561586 (antibody, human IgG4, V domains shown, Human IgG4 heavy constant region and kappa CL) VH: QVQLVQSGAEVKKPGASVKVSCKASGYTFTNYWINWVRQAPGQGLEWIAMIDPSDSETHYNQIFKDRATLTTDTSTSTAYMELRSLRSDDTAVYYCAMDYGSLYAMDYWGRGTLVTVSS VL: DIVLTQSPDSLAVSLGERATINCRASKSVSSSGYNYIFWYQQKPGQPPKLLIYLASNLDSGVPDRFSGSGSGTDFTLTISSLQAEDVAVYYCQESRELPTFGQGTKLEIK ?
Result: class 0

Ask: Is EC50 strictly under 1 ng/mL for the entry QP256279 (antibody, human IgG4, V domains shown, Human IgG4 heavy constant region and kappa CL) VH: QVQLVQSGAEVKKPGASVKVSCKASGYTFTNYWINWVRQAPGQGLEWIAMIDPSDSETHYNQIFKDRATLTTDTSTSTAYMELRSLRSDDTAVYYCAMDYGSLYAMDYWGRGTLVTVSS VL: DIVLTQSPDSLAVSLGERATINCRASQSVRSSGYNWIFWYQQKPGQPPKLLIYLASNRDSGVPDRFSGSGSGTDFTLTISSLQAEDVAVYYCQHSRELPTFGQGTKLEIK ?
Result: class 1

Ask: Is EC50 strictly under 1 ng/mL for the entry QP2561581 (antibody, human IgG4, V domains shown, Human IgG4 heavy constant region and kappa CL) VH: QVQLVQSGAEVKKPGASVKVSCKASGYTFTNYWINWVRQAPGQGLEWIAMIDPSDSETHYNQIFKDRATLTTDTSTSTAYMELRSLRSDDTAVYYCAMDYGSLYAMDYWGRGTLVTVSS VL: DIVLTQSPDSLAVSLGERATINCRASKSVSSSGYNYIFWYQQKPGQPPKLLIYLASNLDPGVPDRFSGSGSGTDFTLTISSLQAEDVAVYYCQHSRELPTFGQGTKLEIK ?
Result: class 1

Ask: Is EC50 strictly under 1 ng/mL for the entry QP256291 (antibody, human IgG4, V domains shown, Human IgG4 heavy constant region and kappa CL) VH: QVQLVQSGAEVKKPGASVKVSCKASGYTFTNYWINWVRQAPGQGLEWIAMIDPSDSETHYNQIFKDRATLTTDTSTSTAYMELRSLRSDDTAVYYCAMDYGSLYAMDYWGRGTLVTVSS VL: DIVLTQSPDSLAVSLGERATINCRASKSVGSSGYNWLFWYQQKPGQPPKLLIYLASNRDSGVPDRFSGSGSGTDFTLTISSLQAEDVAVYYCQHSRELPTFGQGTKLEIK ?
Result: class 0
